# Tested Target: CYP1A2 (Homo sapiens)
# Construct: from tissue; host or cells: liver microsomes
# Sequence (P05177 1-516): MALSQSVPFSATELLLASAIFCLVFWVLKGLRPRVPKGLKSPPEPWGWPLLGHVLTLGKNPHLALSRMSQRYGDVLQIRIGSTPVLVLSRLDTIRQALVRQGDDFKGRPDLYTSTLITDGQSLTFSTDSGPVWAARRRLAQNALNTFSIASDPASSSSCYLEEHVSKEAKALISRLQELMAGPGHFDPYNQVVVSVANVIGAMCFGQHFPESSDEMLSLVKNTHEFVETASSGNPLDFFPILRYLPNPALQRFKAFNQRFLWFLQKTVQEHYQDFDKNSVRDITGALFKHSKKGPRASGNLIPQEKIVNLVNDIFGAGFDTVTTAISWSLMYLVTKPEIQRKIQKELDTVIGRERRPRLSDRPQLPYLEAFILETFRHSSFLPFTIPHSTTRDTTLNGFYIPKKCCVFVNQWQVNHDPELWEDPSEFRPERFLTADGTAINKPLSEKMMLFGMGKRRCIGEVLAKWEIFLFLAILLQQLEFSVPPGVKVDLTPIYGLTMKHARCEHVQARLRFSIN
# Assay Explanation: CYP inhibition test, liver microsome incubation
# Type: in vitro ADME
# Test Context: liver microsomes, probe phenacetin
# Method: The compound was dissolved in DMSO to prepare a 10 mM stock solution. The stock solution was further diluted into a series of working solutions of 5, 1.5, 0.5, 0.15, 0.05, 0.015 and 0.005 mM with a mixed solvent of DMSO:methanol=1:1. The substrates were each dissolved in DMSO to prepare stock solutions of the corresponding concentrations. The positive controls were each dissolved in DMSO to prepare stock solutions of the corresponding concentrations. […]

{"columns": ["Compound", "IC50"],
 "data": [
  ["C[C@H](Cn1cnc2c(N)ncnc21)OCP(=O)(NCCOCc1ccccc1)Oc1ccccc1 (mixture of isomers)", "> 50 µM"]
]}

====

# Tested Target: CYP2B6 (Homo sapiens, UniProt P20813)
# Construct: The protein concentration of liver microsomes in the reaction system was 0.2 mg/mL; from tissue; host or cells: liver microsomes
# Sequence (P20813 1-491): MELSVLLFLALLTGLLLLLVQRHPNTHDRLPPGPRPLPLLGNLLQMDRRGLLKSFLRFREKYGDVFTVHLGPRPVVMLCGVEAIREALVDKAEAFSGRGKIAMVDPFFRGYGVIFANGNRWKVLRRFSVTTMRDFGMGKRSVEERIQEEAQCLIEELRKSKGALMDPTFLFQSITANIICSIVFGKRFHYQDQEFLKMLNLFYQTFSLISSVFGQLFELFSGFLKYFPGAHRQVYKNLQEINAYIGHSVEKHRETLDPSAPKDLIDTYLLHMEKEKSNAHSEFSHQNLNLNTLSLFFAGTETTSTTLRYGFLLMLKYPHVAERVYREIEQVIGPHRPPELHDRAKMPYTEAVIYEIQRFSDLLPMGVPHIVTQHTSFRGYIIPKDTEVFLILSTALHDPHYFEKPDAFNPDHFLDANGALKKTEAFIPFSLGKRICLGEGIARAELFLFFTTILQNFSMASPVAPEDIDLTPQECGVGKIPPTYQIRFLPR
# Assay Explanation: CYP inhibition test, liver microsome incubation
# Type: in vitro ADME
# Test Context: liver microsomes, probe bupropion
Measurement Kind: IC50

{"columns": ["Compound", "Observed"],
 "data": [
  ["C[C@H](Cn1cnc2c(N)ncnc21)OCP(=O)(NCCOCc1ccccc1)Oc1ccccc1 (mixture of isomers)", "> 50 µM"]
]}

====

# Tested Target: CYP2C19 (Homo sapiens)
# Construct: The protein concentration of liver microsomes in the reaction system was 0.2 mg/mL; from tissue; host or cells: liver microsomes
# Sequence (P33261 whole entry): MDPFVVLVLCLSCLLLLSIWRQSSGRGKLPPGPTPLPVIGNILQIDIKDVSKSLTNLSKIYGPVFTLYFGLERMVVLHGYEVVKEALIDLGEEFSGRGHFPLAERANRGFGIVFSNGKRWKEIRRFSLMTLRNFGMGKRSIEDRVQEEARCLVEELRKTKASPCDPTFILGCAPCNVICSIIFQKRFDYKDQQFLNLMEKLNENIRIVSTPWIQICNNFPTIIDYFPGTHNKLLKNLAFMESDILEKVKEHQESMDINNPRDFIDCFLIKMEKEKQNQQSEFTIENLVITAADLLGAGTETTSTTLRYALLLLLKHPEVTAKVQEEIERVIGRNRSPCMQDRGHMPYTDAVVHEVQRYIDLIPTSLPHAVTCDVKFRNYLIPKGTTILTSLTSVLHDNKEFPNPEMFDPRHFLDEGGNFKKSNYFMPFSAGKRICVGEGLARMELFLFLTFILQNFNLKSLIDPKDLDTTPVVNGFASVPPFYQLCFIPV
# Assay Explanation: CYP inhibition test, liver microsome incubation
# Assay type: in vitro ADME
# Test Context: liver microsomes, probe methoin

{"columns": ["Compound", "IC50"],
 "data": [
  ["C[C@H](Cn1cnc2c(N)ncnc21)OCP(=O)(NCCOCc1ccccc1)Oc1ccccc1 (mixture of isomers)", "> 50 µM"]
]}

====

# Test system: hepatitis B virus (HBV)
# Assay Explanation: In vitro pharmacological test: HBV DNA replication in HepG2.2.15 cells
# Assay type: cell-based

{"columns": ["Molecule", "EC50"],
 "data": [
  ["C[C@H](Cn1cnc2c(N)ncnc21)OCP(=O)(NCCOCc1ccccc1)Oc1ccccc1 (mixture of isomers) [Ex. 15]", "54.7 nM"]
]}

====

# Tested Target: CYP2C9 (Homo sapiens)
# Construct: The protein concentration of liver microsomes in the reaction system was 0.2 mg/mL; from tissue; host or cells: liver microsomes
# Sequence (P11712 whole entry): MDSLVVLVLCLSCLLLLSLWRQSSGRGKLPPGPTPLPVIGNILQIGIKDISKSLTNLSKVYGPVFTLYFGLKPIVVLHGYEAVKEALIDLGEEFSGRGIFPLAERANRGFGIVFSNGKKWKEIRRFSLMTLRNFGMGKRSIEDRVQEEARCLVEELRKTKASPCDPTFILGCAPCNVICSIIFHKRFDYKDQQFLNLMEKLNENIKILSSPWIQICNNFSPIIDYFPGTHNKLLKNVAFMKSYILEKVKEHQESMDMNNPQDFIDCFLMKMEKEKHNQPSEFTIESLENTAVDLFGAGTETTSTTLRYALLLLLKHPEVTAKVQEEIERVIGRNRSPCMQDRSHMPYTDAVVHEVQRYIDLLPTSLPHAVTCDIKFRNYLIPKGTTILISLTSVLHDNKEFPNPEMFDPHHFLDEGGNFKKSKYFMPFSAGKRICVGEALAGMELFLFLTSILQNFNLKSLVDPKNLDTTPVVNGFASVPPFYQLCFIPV
# Assay Explanation: CYP inhibition test, liver microsome incubation
# Type: in vitro ADME
# Test Context: liver microsomes, probe diclofenac
# Procedure: The compound was dissolved in DMSO to prepare a 10 mM stock solution. The stock solution was further diluted into a series of working solutions of 5, 1.5, 0.5, 0.15, 0.05, 0.015 and 0.005 mM with a mixed solvent of DMSO:methanol=1:1. The substrates were each dissolved in DMSO to prepare stock solutions of the corresponding concentrations. The positive controls were each dissolved in DMSO to prepare stock solutions of the corresponding concentrations. […]
pIC50: −log10 of the molar value.
Measurement Kind: pIC50

{"columns": ["Compound", "Measurement Kind", "Observed"],
 "data": [
  ["C[C@H](Cn1cnc2c(N)ncnc21)OCP(=O)(NCCOCc1ccccc1)Oc1ccccc1 (mixture of isomers)", "pIC50", "< 4.30"]
]}

====

# Tested Target: CYP3A4 (Homo sapiens, UniProt P08684)
# Construct: The protein concentration of liver microsomes in the reaction system was 0.2 mg/mL; from tissue; host or cells: liver microsomes
# Sequence (P08684 whole entry): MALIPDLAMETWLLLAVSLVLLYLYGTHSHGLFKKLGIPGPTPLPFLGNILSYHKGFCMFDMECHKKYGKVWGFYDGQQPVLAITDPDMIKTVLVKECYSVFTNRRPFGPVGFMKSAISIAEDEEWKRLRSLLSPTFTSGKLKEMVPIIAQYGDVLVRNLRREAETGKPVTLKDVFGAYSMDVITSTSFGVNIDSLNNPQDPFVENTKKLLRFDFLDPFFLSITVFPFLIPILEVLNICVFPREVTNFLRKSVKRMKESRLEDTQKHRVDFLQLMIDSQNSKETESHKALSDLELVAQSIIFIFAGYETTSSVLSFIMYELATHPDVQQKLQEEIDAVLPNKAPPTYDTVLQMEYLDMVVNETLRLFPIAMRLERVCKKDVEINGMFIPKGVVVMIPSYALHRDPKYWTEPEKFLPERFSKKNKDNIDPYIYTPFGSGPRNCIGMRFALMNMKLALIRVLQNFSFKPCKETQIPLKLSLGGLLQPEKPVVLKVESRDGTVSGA
# Assay Explanation: CYP inhibition test, liver microsome incubation
# Assay type: in vitro ADME
# Test Context: liver microsomes, probe midazolam
pIC50: −log10 of the molar value.

{"columns": ["Compound", "pIC50"],
 "data": [
  ["C[C@H](Cn1cnc2c(N)ncnc21)OCP(=O)(NCCOCc1ccccc1)Oc1ccccc1 (mixture of isomers)", 4.94]
]}
